# Assay Procedure: caspase-8 TRAIL sensitization, hit retest, confirmation, cell-based, NB7+caspase-8, with/without TRAIL, luminescence panel (AID 651596)
# Condition Label: NB7 neuroblastoma + caspase-8, without TRAIL, luminescence viability, without TRAIL, mean of runs, at 10 µM
Experimental Endpoint: activity

[[record]]
molecule = "Brc1ccc(-c2cn3ccccc3n2)cc1"
experimental_endpoint = "activity"
recorded_result = "62.2%"

[[record]]
molecule = "Nc1c(-c2ccccc2)cnc2c(-c3ccccc3)cnn12"
experimental_endpoint = "activity"
recorded_result = "77.2%"

[[record]]
molecule = "CC(C)(C)c1ccc(/C=C/C(=O)NC2=NCCS2)cc1"
experimental_endpoint = "activity"
recorded_result = "41.9%"

[[record]]
molecule = "O=C(Nc1cccc(Cl)c1)c1nc[nH]c1C(=O)NCCCNC(=O)c1[nH]cnc1C(=O)Nc1cccc(Cl)c1"
experimental_endpoint = "activity"
recorded_result = "77.4%"

[[record]]
molecule = "C[C@H](NC(=O)c1ncn2c1c(=O)[nH]c1ccc(Br)cc12)c1ccccc1"
experimental_endpoint = "activity"
recorded_result = "7.95%"

[[record]]
molecule = "CCc1nnc(NC(=O)c2nc(S(=O)(=O)Cc3ccccc3)ncc2Cl)s1"
experimental_endpoint = "activity"
recorded_result = "74.3%"

[[record]]
molecule = "OCC1OC(n2cnc3c(NCc4ccco4)ncnc32)C(O)C1O (configuration not stated)"
experimental_endpoint = "activity"
recorded_result = "54.3%"

[[record]]
molecule = "O=C(c1ccc(CSc2nc3ccncc3[nH]2)cc1)N1CCCCCC1"
experimental_endpoint = "activity"
recorded_result = "82.1%"

[[record]]
molecule = "CCCCCN=C(N)N/N=C/c1c[nH]c2ccc(OC)cc12"
experimental_endpoint = "activity"
recorded_result = "98%"

[[record]]
molecule = "O=C(COc1ccccc1)Nc1cccc(-c2ccc(N3CCOCC3)nn2)c1"
experimental_endpoint = "activity"
recorded_result = "77.8%"

[[record]]
molecule = "CCCCc1ccc(NC(=O)c2cnccn2)cc1"
experimental_endpoint = "activity"
recorded_result = "45.1%"

[[record]]
molecule = "O=C(Cn1c2ccccc2c(=O)c2ccccc21)N/N=C/c1cc([N+](=O)[O-])ccc1N1CCCCCC1"
experimental_endpoint = "activity"
recorded_result = "48%"

[[record]]
molecule = "N#Cc1cccnc1N1CCN(C(=O)c2cccc3c2C(=O)c2ccc(Cl)cc2S3(=O)=O)CC1"
experimental_endpoint = "activity"
recorded_result = "97.4%"

[[record]]
molecule = "CCCCN(CC)S(=O)(=O)c1ccc(C(=O)N=c2sc3cc(NC(C)=O)ccc3n2C)cc1"
experimental_endpoint = "activity"
recorded_result = "53.8%"

[[record]]
molecule = "Cc1cnc(NC(=O)c2ccc(OCC3CCCO3)cc2)s1 (configuration not stated)"
experimental_endpoint = "activity"
recorded_result = "94.7%"

[[record]]
molecule = "CSC(=Nc1ccccc1)N=C(SCc1ccccc1)N(C)C"
experimental_endpoint = "activity"
recorded_result = "98.5%"

[[record]]
molecule = "Nc1nnnn1/N=C/C(Br)=C/c1ccccc1"
experimental_endpoint = "activity"
recorded_result = "88.8%"

[[record]]
molecule = "COc1ccc(/C=C(\\C#N)C(=O)OCC(=O)Nc2ccc(-c3nc4ccc(C)cc4s3)cc2)cc1"
experimental_endpoint = "activity"
recorded_result = "27.9%"

[[record]]
molecule = "COc1ccc(C2NN=C(c3ccc(C)cc3)S2)cc1 (configuration not stated)"
experimental_endpoint = "activity"
recorded_result = "42.1%"

[[record]]
molecule = "Cc1onc(C(=O)N2CCC(Cc3ccccc3)CC2)c1[N+](=O)[O-]"
experimental_endpoint = "activity"
recorded_result = "98.1%"

[[record]]
molecule = "Cc1csc(NC(=O)c2cc3c(s2)CCC3)n1"
experimental_endpoint = "activity"
recorded_result = "86.3%"

[[record]]
molecule = "N=c1c2c(n(Cc3ccc(Cl)c(Cl)c3)c3c1CCC3)CCCC2"
experimental_endpoint = "activity"
recorded_result = "60.1%"

